system: U-87 glioblastoma cells; assay: In vitro antiproliferative MTT assay on U-87; type: cell-based, human; settings: Homo sapiens; Table 3; U-87 glioblastoma; read-out: Calculated IC50 ± SEM, U-87 (Table 3)
pIC50: −log10 of the molar value.
Observed property: pIC50

CC1=CC(=O)C(C(C)C)=C(CCC(=O)Oc2cc(O)c3c(=O)cc(C4(O)C=CC(=O)C=C4)oc3c2)C1=O : 5.94

a. CCOC1(c2cc(=O)c3c(O)cc(O)cc3o2)C=CC(=O)C=C1
b. CC1=CC(=O)C(C(C)C)=C(CCC(=O)O)C1=O
Q: Lab note: record which item had the higher pIC50, a or b . Record your answer as the label of the chosen record.
Ans: a
